Test: chemical genetic growth profiling, strain panel (AID 1159580);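 also: tested at 20 µM; growth read once vehicle control cultures reached saturation at 30 °C; 1 = growth at the plate median or of vehicle wells; lower values mean less growth of the strain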
Conditions: S. cerevisiae deletion strains, growth OD, locus YOR001W, strain rrp6
The campaign covered roughly 5,500 compounds. About 2,000 (36%) were called active. Inconclusive results (about 18%) are left out. Rule as the data show it: active = normalized growth mostly below about 0.91 (no sharp cut-off); inconclusive = no clear call, values can overlap the other calls; inactive = mostly above about 0.92. The list shows a part of the results.
Possible outcomes: active, inactive

Oc1ccc(Cl)c2cccnc12    active
O[N+]1=CC=CCC1=S.On1ccccc1=S.[Zn]    active
CN[C@H](CC(=O)O)C(=O)O    inactive
CC(C)NCC(O)c1ccc(O)c(O)c1 (centres undefined)    inactive

* * *

Assay: chemical genetic growth profiling, strain panel (AID 1159580)
Conditions: S. cerevisiae deletion strains, growth OD, locus YBR279W, strain paf1
The campaign covered roughly 5,500 compounds. About 2,000 (36%) were called active. Roughly 18% stayed inconclusive and do not appear here. Cut-off read from the data, not from the text of the source: active = normalized growth mostly below about 0.91 (no sharp cut-off); inconclusive = no clear call, values can overlap the other calls; inactive = mostly above about 0.92. The list shows a part of the results.
Possible outcomes: active, inactive

O=C1CCCC2C3CC(CN12)[C@@H]1CCCCN1C3 (some centres undefined)    inactive
C1CNCCN1    inactive
Oc1c(I)cc(Cl)c2cccnc12    active
O=C(O)c1ccccc1Nc1ccccc1    inactive
CCCCC(CC)CN1CN(CC(CC)CCCC)CC(C)(N)C1 (centres undefined)    active
COC(C)(C)CCC[C@H](C)C/C=C/C(C)=C/C(=O)OC(C)C    inactive
COc1cc(C(=O)NCc2ccc(OCCN(C)C)cc2)cc(OC)c1OC    inactive
C=CC(C1=CC(=O)C(OC)=CC1=O)c1ccc(O)cc1 (centres undefined)    inactive
Oc1c(Br)cc(Br)c2cccnc12    active

* * *

Listing of entries alongside the reported normalized growth.
Test: chemical genetic growth profiling, strain panel (AID 1159580)
Settings: S. cerevisiae deletion strains, growth OD, locus YNL224C, strain SQS1, active compounds read low
The whole screen tested about 5,500 compounds, of which about 2,000 (36%) were called active. Another 18% or so got no clear call; they are omitted. This is one part of the list.
MEASURED_ATTRIBUTE: normalized growth

NC(Cc1ccc(O)c(O)c1)C(=O)O (centres undefined)    1.01
CC#CCOC(=O)c1c(C)nc2sc3c(c2c1N)CCC(O)C3 (centres undefined)    0.971
O=C(O)C1=CCNCC1    0.982
Cc1cccc(C(=O)NCN2CCN(c3ccccc3C#N)CC2)c1    0.993

* * *

Experiment: chemical genetic growth profiling, strain panel (AID 1159580)
Details: S. cerevisiae deletion strains, growth OD, locus YLR058C, strain SHM2 (second series), active compounds read low
The whole screen tested about 5,500 compounds, of which about 2,000 (36%) were called active. About 18% were inconclusive and are not listed. The list shows a part of the results.
MEASURED_ATTRIBUTE: normalized growth

CC1CCN(C(=O)CC#N)CC1    0.995
Nc1ccccc1SCC(=O)Nc1c(F)cccc1F    1.02
Cc1c(Cl)cccc1NC(=S)Nc1ccc(Cl)cc1C(=O)c1ccccc1    1.01
CCOc1ccc(/C=C(\C)[N+](=O)[O-])cc1OC    0.651
Fc1cc2n[nH]nc2cc1Cl    0.978

* * *

Assay: chemical genetic growth profiling, strain panel (AID 1159580)
Conditions: S. cerevisiae deletion strains, growth OD, locus YOR270C, strain vph1, active compounds read low
Out of some 5,500 compounds screened, about 2,000 (36%) were called active. Not shown: some 18% with an inconclusive outcome. The list shows a part of the results.
Listing of entries alongside the reported normalized growth.
MEASURED_ATTRIBUTE: normalized growth

O=[N+]([O-])c1cc([As](=O)(O)O)ccc1O    0.952
CC(C)(C)NCC(O)c1ccccc1Cl (stereo not drawn)    1.05
CC(=O)/C(=C\c1ccccc1)CC(=O)O    0.98
CC(=O)NCCCS(=O)(=O)O    1.04
CN1C(CC(=O)c2ccccc2)CCCC1CC(O)c1ccccc1 (stereo not drawn)    0.917
CCN(CC)CCOc1ccc2c(c1)C(=O)c1cc(OCCN(CC)CC)ccc1-2    1.07
O=C(O)/C=C/C=C/c1ccccc1    0.687
C=CC(C1=CC(=O)C(OC)=CC1=O)c1ccccc1 (stereo not drawn)    0.761
C[C@H](N)[C@H](O)c1ccc(O)c(O)c1    1.02
O=[N+]([O-])c1cc(O)c(O)c([N+](=O)[O-])c1    0.989
COc1cc(OC)c2c(=O)c(-c3ccccc3)c(C)oc2c1OC    0.989
Cc1c(O)c(O)cc2c1CC=C1[C@@]2(C)CC[C@@]2(C)C3C[C@](C)(C(=O)O)CC[C@]3(C)CC[C@]12C (stereo partly drawn)    0.273
O=[N+]([O-])c1ccc(O)c([N+](=O)[O-])c1    0.901

* * *

Experiment: chemical genetic growth profiling, strain panel (AID 1159580);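 also: tested at 20 µM; growth read once vehicle control cultures reached saturation at 30 °C; 1 = growth at the plate median or of vehicle wells; lower values mean less growth of the strain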
Settings: S. cerevisiae deletion strains, growth OD, locus YHR027C, strain rpn1
About 2,000 (36%) of roughly 5,500 compounds were called active. About 18% were inconclusive and are not listed. No stated cut-off is given here; in the data, active means normalized growth mostly below about 0.91 (no sharp cut-off); inconclusive means no clear call, values can overlap the other calls; inactive means mostly above about 0.92. Some of the results follow.
Possible outcomes: active, inactive

OC[C@@H](O)[C@@H](O[C@@H]1O[C@H](CO)[C@@H](O)[C@H](O)[C@H]1O)[C@H](O)[C@@H](O)CO    inactive
CS(=O)(=O)CCCCN=C=S    active
Cc1occc(=O)c1O    inactive
Oc1c(Cl)cc(Cl)c2cccnc12    active
O=C1C=CC2=C3c4cc(O)c(O)cc4CC3(O)COC2=C1O (configuration not stated)    active
CN(C)CCOc1ccc(/C(=C(/CCCl)c2ccccc2)c2ccccc2)cc1    active
CC(C)(C)NC[C@@H](O)COc1nsnc1N1CCOCC1    inactive

* * *

Experiment: chemical genetic growth profiling, strain panel (AID 1159580);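 also: tested at 20 µM; growth read once vehicle control cultures reached saturation at 30 °C; 1 = growth at the plate median or of vehicle wells; lower values mean less growth of the strain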
Settings: S. cerevisiae deletion strains, growth OD, locus YNL153C, strain GIM3, active compounds read low
Screen size: about 5,500 compounds; about 2,000 (36%) were called active. Not shown: some 18% with an inconclusive outcome. Some of the results follow.
MEASURED_ATTRIBUTE: normalized growth

NCC(O)c1ccc(O)c(O)c1 (stereo not given)    1.01
CN1C(CC(=O)c2ccccc2)CCCC1CC(O)c1ccccc1 (stereo not given)    0.988
Cc1c(Cl)cccc1NC(=S)Nc1ccc(Cl)cc1C(=O)c1ccccc1    0.984
CSC1=NCN(Cc2ccccc2)CN1    1.02
CN1CCN(C=Nc2ncc(C(F)(F)F)cc2Cl)CC1    0.991
NC(=S)N/N=C\c1cc(F)cc(F)c1    0.976
C#CCOc1c(Cl)cccc1Cl    0.982
CN(/N=C\c1ccccc1)c1ncc(C(F)(F)F)cc1Cl    0.984
CCSc1nnc(N)s1    0.997
CN(C)C=Nc1nnc(Sc2ncccc2[N+](=O)[O-])s1    0.977
O=C(NNC(=S)Nc1ccc(F)cc1)c1ccccc1Cl    1.01
CCCCCCNC(=O)NCCCCCC    0.986
COc1[nH]c2ccc(F)cc2c1C(=O)OCC1CCN(CCNS(C)(=O)=O)CC1    1.01
O=C(OC1Cc2c(O)cc(O)cc2OC1c1cc(O)c(O)c(O)c1-c1c(C2Oc3cc(O)cc(O)c3CC2OC(=O)c2cc(O)c(O)c(O)c2)cc(O)c(O)c1O)c1cc(O)c(O)c(O)c1 (stereo not given)    1
CC(C)=CCC[C@](C)(O)C1CC=C(C)CC1 (stereo not given in full)    1.01

* * *

Test: chemical genetic growth profiling, strain panel (AID 1159580);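 also: tested at 20 µM; growth read once vehicle control cultures reached saturation at 30 °C; 1 = growth at the plate median or of vehicle wells; lower values mean less growth of the strain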
Settings: S. cerevisiae deletion strains, growth OD, locus YGR252W, strain gcn5
About 2,000 (36%) of roughly 5,500 compounds were called active. About 18% were inconclusive and are not listed. Rule as the data show it: active = normalized growth mostly below about 0.91 (no sharp cut-off); inconclusive = no clear call, values can overlap the other calls; inactive = mostly above about 0.92. Some of the results follow.
Possible outcomes: active, inactive

COC(C)(C)CCC[C@H](C)C/C=C/C(C)=C/C(=O)OC(C)C    inactive
CC(=O)O[C@@H]1C[C@@]2(C)[C@H](c3ccoc3)C[C@H]3O[C@]32[C@]2(C)C(=O)C(O)=C3C(C)(C)C(=O)C=C[C@]3(C)C12 (stereo not given in full)    active
NCCCC[C@H](N[C@@H](CCc1ccccc1)C(=O)O)C(=O)N1CCC[C@H]1C(=O)O    inactive
CN1C(CC(=O)c2ccccc2)CCCC1CC(O)c1ccccc1 (stereo not given)    inactive
CC(=O)O[C@H]1C[C@@H](OC(C)=O)C(C)(C)C2C[C@@H](OC(C)=O)[C@@]3(C)C4=CC(=O)O[C@@H](c5ccoc5)[C@]4(C)CCC3[C@]21C (stereo not given in full)    inactive
CCCc1occc(=O)c1/C=C/O    inactive
Cc1occc(=O)c1O    inactive
Oc1c(I)cc(I)c2cccnc12    active
CN[C@H](CC(=O)O)C(=O)O    inactive
O=C1CCCC2C3CC(CN12)[C@@H]1CCCCN1C3 (stereo not given in full)    inactive

All figures here come from PubChem BioAssay AID1159580.
